Recorded values, source patent US12606520B2.

assay: PK in mice after iv injection of liposomal NA112: plasma; assay type: in vivo; conditions: mouse, iv, 10 mg/kg, mice iv 10 mg/kg liposomes, 0.0833 hr, read-out: Plasma concentration A2
measuredProperty: concentration at 0.0833 hr
Dear colleague, please send the value followed by its unit.

// query Consider the compound shown here: CCC(NC(=O)[C@H](CC(C)C)NC(=O)NCc1ccccc1)C(=O)C(=O)NCc1cc(OC)cc(OC)c1 (mixture of isomers) [NA112] What is its recorded concentration at 0.0833 hr?
// result 69.1 µg/mL

* * *

experiment: PK in mice after iv injection of liposomal NA112: plasma; format: in vivo; conditions: mouse, iv, 10 mg/kg, mice iv 10 mg/kg liposomes, 16 hr, read-out: Plasma concentration A1
measuredProperty: concentration at 16 hr (ng/mL)
Numbers only, in ng/mL.

// query Consider the compound shown here: CCC(NC(=O)[C@H](CC(C)C)NC(=O)NCc1ccccc1)C(=O)C(=O)NCc1cc(OC)cc(OC)c1 (mixture of isomers) What is its recorded concentration at 16 hr?
// result 10.8
